assay: LAP Dog PK study, SQ and IM injections (IV values given for reference)
particulars: in vivo, IM, dose 5 mg/kg, Beagle dogs, t = 36 days
endpointLabel: AUC(0-t)
Please format your answer as a value with the unit trailing.

Entry CC(C)C1=C2[C@H]3CC[C@@H]4[C@@]5(C)CC[C@H](OC(=O)CC(C)(C)C(=O)O)C(C)(C)[C@@H]5CC[C@@]4(C)[C@]3(C)CC[C@@]2([C@@H](O)CN(CCN(C)C)Cc2ccc(Cl)cc2)CC1=O , AUC(0-t) reported as 16200 ng·h/mL

---

assay: LAP Dog PK study, SQ and IM injections (IV values given for reference)
Design: species or system Beagle dogs
particulars: Beagle, in vivo; IV, dog (FIG. 2); read-out: AUC0-24 IV
endpointLabel: AUC(0-t)
Please format your answer as a value with the unit trailing.

Entry CC(C)C1=C2[C@H]3CC[C@@H]4[C@@]5(C)CC[C@H](OC(=O)CC(C)(C)C(=O)O)C(C)(C)[C@@H]5CC[C@@]4(C)[C@]3(C)CC[C@@]2([C@@H](O)CN(CCN(C)C)Cc2ccc(Cl)cc2)CC1=O , AUC(0-t) reported as 4150 ng·h/mL

---

assay: LAP Rat PK study, SQ and IM injections (IV values given for reference)
Design: species or system Sprague-Dawley rats
particulars: Sprague-Dawley, in vivo, rat (FIG. 1), read-out: AUC0-24 IV
endpointLabel: AUC(0-t)

Entry CC(C)C1=C2[C@H]3CC[C@@H]4[C@@]5(C)CC[C@H](OC(=O)CC(C)(C)C(=O)O)C(C)(C)[C@@H]5CC[C@@]4(C)[C@]3(C)CC[C@@]2([C@@H](O)CN(CCN(C)C)Cc2ccc(Cl)cc2)CC1=O [compound of Formula I] , AUC(0-t) reported as 2960 ng·h/mL

---

assay: LAP Rat PK study, SQ and IM injections (IV values given for reference)
particulars: in vivo, IM, dose 20 mg/kg, Sprague-Dawley rats, n=3
Description: Injections were made in Sprague-Dawley rats SQ and IM at 5 and 20 mg/kg doses with T1/2, Cmax, Tmax, and AUC being measured.
endpointLabel: Cmax (ng/mL)
Write the answer as a number in ng/mL, unit excluded.

Entry CC(C)C1=C2[C@H]3CC[C@@H]4[C@@]5(C)CC[C@H](OC(=O)CC(C)(C)C(=O)O)C(C)(C)[C@@H]5CC[C@@]4(C)[C@]3(C)CC[C@@]2([C@@H](O)CN(CCN(C)C)Cc2ccc(Cl)cc2)CC1=O , Cmax reported as 178

---

assay: LAP Rat PK study, SQ and IM injections (IV values given for reference)
particulars: in vivo, IM, dose 20 mg/kg, Sprague-Dawley rats, n=3
endpointLabel: Tmax
Please format your answer as a value with the unit trailing.

Entry CC(C)C1=C2[C@H]3CC[C@@H]4[C@@]5(C)CC[C@H](OC(=O)CC(C)(C)C(=O)O)C(C)(C)[C@@H]5CC[C@@]4(C)[C@]3(C)CC[C@@]2([C@@H](O)CN(CCN(C)C)Cc2ccc(Cl)cc2)CC1=O , Tmax reported as 8 h

---

assay: LAP Rat PK study, SQ and IM injections (IV values given for reference)
particulars: in vivo, sc, SQ, dose 5 mg/kg, Sprague-Dawley rats, n=3
endpointLabel: half-life
Please format your answer as a value with the unit trailing.

Entry CC(C)C1=C2[C@H]3CC[C@@H]4[C@@]5(C)CC[C@H](OC(=O)CC(C)(C)C(=O)O)C(C)(C)[C@@H]5CC[C@@]4(C)[C@]3(C)CC[C@@]2([C@@H](O)CN(CCN(C)C)Cc2ccc(Cl)cc2)CC1=O , half-life reported as 120 h

The values you see were collected from patent US9795619B2.
